Answer each item with its documented Kd.
- system-under-test: T1, mouse sclerostin (mouse)
- T1 chain: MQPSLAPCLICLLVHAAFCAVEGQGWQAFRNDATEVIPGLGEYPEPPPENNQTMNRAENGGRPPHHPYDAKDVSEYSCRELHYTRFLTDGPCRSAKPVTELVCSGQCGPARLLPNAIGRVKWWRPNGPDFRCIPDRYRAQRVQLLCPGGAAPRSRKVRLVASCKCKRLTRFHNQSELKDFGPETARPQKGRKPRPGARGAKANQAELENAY
- experiment: SPR, pH 5.8, 37C
API: value field is a number in nM; no unit string.

Query: For mabA_pH1 (antibody, V domains shown) VH: EVQLVQSGAEVKKPGASVKVSCKASGYTFTDYNMHWVRQAPGQGLEWMGEINPNSGHAGYNQKFKGRVTMTTDTSTSTAYMELRSLRSDDTAVYYCARLHYDDIYDDWYFDVWGQGTTVTVSS VL: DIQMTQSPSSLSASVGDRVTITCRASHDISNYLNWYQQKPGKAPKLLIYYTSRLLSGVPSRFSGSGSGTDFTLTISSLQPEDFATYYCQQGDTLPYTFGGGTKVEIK , write its Kd.
Response: 5.21

Query: For mabB (antibody, V domains shown) VH: QVQLVQSGAEVKKPGASVKVSCKVSGFPIKDTFQHWVRQAPGKGLEWMGWSDPEIGDTEYASKFQGRVTMTEDTSTDTAYMELSSLRSEDTAVYYCATGDTTYKFDFWGQGTTVTVSS VL: DIQMTQSPSSLSASVGDRVTITCKASQDVHTAVAWYQQKPGKAPKLLIYWASTRWTGVPSRFSGSGSGTDFTLTISSLQPEDFATYYCQQYSDYPWTFGGGTKVEIK , write its Kd.
Response: 0.26
